- system_tested: T1, hu-M-IL1RAP construct, positions S21-T367 (extracellular domain of the membrane form of human IL1RAP) (human, UniProt Q9NPH3 21-367)
- T1 construct: Biotinylated when captured on the Biacore chip
- T1 sequence: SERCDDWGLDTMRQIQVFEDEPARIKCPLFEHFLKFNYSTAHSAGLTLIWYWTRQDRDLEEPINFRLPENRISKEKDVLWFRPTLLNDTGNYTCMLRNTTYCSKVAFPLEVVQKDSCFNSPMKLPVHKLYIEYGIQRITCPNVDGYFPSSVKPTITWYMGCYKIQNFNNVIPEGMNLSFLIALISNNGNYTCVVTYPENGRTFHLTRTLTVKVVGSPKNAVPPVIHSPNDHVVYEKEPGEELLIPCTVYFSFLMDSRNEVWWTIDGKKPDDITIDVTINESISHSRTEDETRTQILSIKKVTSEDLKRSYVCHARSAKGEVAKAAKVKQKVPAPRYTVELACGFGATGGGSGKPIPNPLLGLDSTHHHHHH
- procedure_details: ELISA, mAb at 10 nM
assay_endpoint: A450
Write down the value, and be sure its unit follows.

These solved cases illustrate the format of a correct answer.
binder	result
10A11 (purified mAb from hybridoma 10A11) (antibody, V domains shown, Mouse hybridoma mAb) VH: EVQLQQSGAELVKPGASVRLSCTSSGFNIKDYFMHWVKQRTEQGLEWVGRIDPEDGETQYAPNFQDKATITVDTSSNTVYLQLSSLTSEDTAVYYCFRPLYYGNSPWFAYWGQGTLVTVSP VL: DIQMTQTTSSLSASLGDRVTISCRASQDISNYLNWYQQKPDGTVKLLIYYTSTLHSGVPSRFSGSGSGTDYSLTISNLEPEDIATYYCHQYSKFPPTFGSGTKLEIK	1.18 A450
13D8 (purified mAb from hybridoma 13D8) (antibody, V domains shown, Mouse hybridoma mAb) VH: EVQLVESGGGLVKPGGSLKLSCTASGFTFSNYAMSWVRQTPEKRLEWVATISDGGNYTYYPDNVKGRFTISRDIAKNNLYLQMSHLKSEDTAMYYCARDRWPYFFDFWGQGTTLTVSS VL: DIQMTQSPASLSVSVGETVTITCRASDNIYSNLAWYQEKQGKSPQLLVYGATNLADGVPSRFSGSGSGTQYSLKINSLQSEDFGSYYCQHFWTTPRSFGGGTKLELK	1.12 A450
11C5(Hy) (purified mAb from the 11C5 hybridoma) (antibody, V domains shown, Mouse hybridoma mAb; also called 11C5(Hy) mAb; mAb 11C5(Hy)) VH: EVQLVESGGGLVKPGGSLKLSCAASGFTFSNYAMSWVRQTPEKRLEWVATVTEGGDYNYCLDDVKGRFTISRDNANDNLYLQMSHLKSEDSARYYCARDRWPYFFDYWGQGTTLTVSS VL: DIQMTQSPASLSVSVGETVTITCRASENIYSNLAWYQQKQGRSPQLLVYGAKNLADGVPSRFSGSGSGTQYSLNINSLQSEDFGTYYCQHFWTTPRTFGGGTKLEIK	1.23 A450

I would be grateful if you could share the reported A450 for 8H1 (purified mAb from hybridoma 8H1) (antibody, V domains shown, Mouse hybridoma mAb) VH: QVQLQQSGPELVKSGASVRISCKASGYAFSGSWMNWVKQRPGKGLEWIGRIYPGDGNTNYNGKFKDKATLTADKSSSTAFMQLSSLTSEDSAVYFCARDYYLFYFDYWGQGTTLTVSS VL: NIVMTQTPKFLPVAAEDRVIITCKASQDVSNEVAWYQQKPGQSPKLLMYYASNRYTGVPDRFTGSGSGTDFTFTISSVQVEDLAVYFCQQHYSSPLTFGAGTKLELK . 1.09 A450

I would be grateful if you could share the reported A450 for 9D5 (purified mAb from hybridoma 9D5) (antibody, V domains shown, Mouse hybridoma mAb) VH: QVQLQQSGAELARPGASVKFSCKASGYTFTSYWMQWVKQRPGQGLEWIGTIYPGDGNTRYTQKFKGKATLTADKSSSTAYMQLSGLASEDSAVYYCARGYFGNLVFDVWGAGTTVTVSS VL: DIKMTQSPSSMYASLGERVTITCKASQDINTYLSWFLQKPGKSPKTLIYRADRLVDGVPSRFSGGGSGQDYSLTISSLEYEDLGIYYCLQYDEFPYTFGSGTKLEIK . 1.14 A450
